Conditions: 293.15 K; 100 kPa; Liquid
± gives the expanded uncertainty stated by the source.
Reported viscosity is given for each of the following molecules.
Report field: quantity (unit follows the number).

Please review the entries below; each comes with its answer.
>>> df
   smiles_structure  recorded_metric               result
0           OCCNCCO        viscosity    892.04 ± 87 mPa·s
1              NCCO        viscosity   24.23 ± 0.24 mPa·s
2       CCN1CCCC1=O        viscosity  2.132 ± 0.032 mPa·s

Could you now look at the following molecule, please?
Bench note: what viscosity did OCCN(CCO)CCO show?
951.79 ± 95 mPa·s
